# Lookup of reported inhibition keyed by entry
# TESTED_ON: Rac GTPase-activating protein 1 (Homo sapiens) (UniProt Q9H0H5)
# Sequence (Q9H0H5 whole entry, looked up): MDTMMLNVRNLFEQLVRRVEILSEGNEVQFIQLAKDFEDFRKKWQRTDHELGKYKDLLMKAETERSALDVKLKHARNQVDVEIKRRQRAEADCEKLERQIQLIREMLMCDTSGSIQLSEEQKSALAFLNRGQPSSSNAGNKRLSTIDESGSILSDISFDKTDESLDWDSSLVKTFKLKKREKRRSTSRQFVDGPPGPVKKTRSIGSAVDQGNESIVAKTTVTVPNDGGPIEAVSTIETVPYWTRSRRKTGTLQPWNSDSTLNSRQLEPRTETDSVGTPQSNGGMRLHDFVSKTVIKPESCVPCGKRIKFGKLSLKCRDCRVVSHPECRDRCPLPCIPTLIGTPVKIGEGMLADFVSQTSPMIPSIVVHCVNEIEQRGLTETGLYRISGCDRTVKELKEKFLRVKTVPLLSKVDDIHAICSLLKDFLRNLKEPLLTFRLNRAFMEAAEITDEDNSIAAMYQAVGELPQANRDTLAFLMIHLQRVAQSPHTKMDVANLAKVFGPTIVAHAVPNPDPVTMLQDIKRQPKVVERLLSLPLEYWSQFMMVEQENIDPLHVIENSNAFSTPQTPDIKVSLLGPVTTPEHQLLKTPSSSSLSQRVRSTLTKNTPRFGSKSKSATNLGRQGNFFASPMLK
# PROTOCOL_NOTES: blockers of MgcRacGAP-driven Rac1 GTP hydrolysis – biochemical, ADP Hunter fluorescence, primary and confirmatory, confirmation (AID 624330);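 also: fluorescence reports GDP produced by GAP-driven GTP hydrolysis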
# MEASUREMENT_PARAMETERS: MgcRacGAP-stimulated Rac1 GTP hydrolysis, at 30 µM, hits give high values, GST-tagged Rac1 F28L mutant substrate
The campaign covered roughly 340,000 compounds. About 2,100 (0.62%) were called active. Only a sample is shown. Entries with a potency or affinity are not part of this list.
ENDPOINT_LABEL: inhibition

1) Cc1noc(C)c1COC(=O)c1ccccc1Sc1ccccc1C#N :: 3.85% (inactive)
2) CN(Cc1ccccc1)C(=O)COC(=O)/C=C/c1ccco1 :: 7.88% (inactive)
3) CC(C)c1ccc(C(=O)Nc2ccc(N3CCOCC3)cc2)cc1 :: 7.63% (inactive)
4) O=NC1=C(c2c(O)[nH]c3ccccc23)CCCC1 :: 5.2% (inactive)
5) CC(=O)Nc1ccc(N2CCN(C(C)=O)CC2)cc1 :: 8.62% (inactive)
6) O=C(NCCCN1CCOCC1)c1cc(-c2ccc(F)cc2)on1 :: 5.56% (inactive)
7) O=C(COC(=O)c1cc(S(=O)(=O)N2CCOCC2)ccc1Cl)NCc1ccccc1 :: -0.98% (inactive)
8) CC(NC(=O)C(C)N1CCN(Cc2ccccc2)CC1)c1ccccc1 (configuration not stated) :: 4.7% (inactive)
9) CN1CCN(S(=O)(=O)c2ccc(N)cc2)CC1 :: -0.77% (inactive)
10) O=C(CSC1=N/C(=C/c2ccc(Cl)c(Cl)c2)C(=O)N1c1ccccc1F)NC1CC1 :: 6.1% (inactive)
11) Cc1nnc(SCC(=O)NNC(=O)COc2ccc(Cl)cc2)s1 :: 3.46% (inactive)
12) Nc1ccc(N2CCCCC2)cc1N1CCCCC1 :: 10.4% (inactive)
